Data credit: patent US20250361295A1

# assayed.target: T1, human LILRA6 protein (human, UniProt Q6PI73 24-447, limits assumed)
# T1 construct: protein for ELISA; construct not described; also called hLILRA6 protein
# T1 sequence (Q6PI73 24-447 limits assumed): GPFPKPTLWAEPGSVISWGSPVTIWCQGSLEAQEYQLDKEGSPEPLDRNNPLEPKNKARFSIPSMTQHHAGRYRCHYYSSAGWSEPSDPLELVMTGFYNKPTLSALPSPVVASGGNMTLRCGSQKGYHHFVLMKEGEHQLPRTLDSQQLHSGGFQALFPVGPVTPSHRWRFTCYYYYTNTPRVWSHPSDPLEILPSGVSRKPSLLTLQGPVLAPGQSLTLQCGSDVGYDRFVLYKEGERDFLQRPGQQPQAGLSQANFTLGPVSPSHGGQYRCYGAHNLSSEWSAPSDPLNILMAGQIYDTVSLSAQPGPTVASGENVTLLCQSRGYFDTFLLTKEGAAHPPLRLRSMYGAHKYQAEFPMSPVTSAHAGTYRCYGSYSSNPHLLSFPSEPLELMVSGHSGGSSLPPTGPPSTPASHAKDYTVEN
# assay.overview: ELISA, LILRA6 protein
observable: binding result

ch2-H1-D7-E5-D5 (antibody, V domains shown) VH: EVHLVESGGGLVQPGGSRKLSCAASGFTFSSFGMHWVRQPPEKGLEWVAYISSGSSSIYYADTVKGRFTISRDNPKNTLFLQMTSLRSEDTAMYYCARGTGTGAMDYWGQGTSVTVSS VL: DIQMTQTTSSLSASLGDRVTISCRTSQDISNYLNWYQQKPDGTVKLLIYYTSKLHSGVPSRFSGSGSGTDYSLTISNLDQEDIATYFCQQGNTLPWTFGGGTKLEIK | no binding
ch10-H9-E3-G3 (antibody, V domains shown) VH: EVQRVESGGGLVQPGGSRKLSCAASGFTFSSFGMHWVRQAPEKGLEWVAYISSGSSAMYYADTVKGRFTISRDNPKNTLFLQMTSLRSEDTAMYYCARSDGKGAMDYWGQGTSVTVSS VL: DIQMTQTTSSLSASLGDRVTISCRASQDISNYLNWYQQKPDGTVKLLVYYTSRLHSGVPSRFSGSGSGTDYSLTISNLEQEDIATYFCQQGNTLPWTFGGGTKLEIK | no binding
ch7-B4-C1-C9 (antibody, V domains shown) VH: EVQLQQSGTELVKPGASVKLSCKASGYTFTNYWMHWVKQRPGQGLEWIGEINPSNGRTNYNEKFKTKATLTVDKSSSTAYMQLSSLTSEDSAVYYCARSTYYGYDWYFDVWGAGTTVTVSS VL: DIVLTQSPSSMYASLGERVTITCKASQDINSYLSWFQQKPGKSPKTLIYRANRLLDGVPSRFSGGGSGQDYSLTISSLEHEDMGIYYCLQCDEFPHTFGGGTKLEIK | no binding
